Hey, just so you know, these numbers are from the supplement of paper PMC6555819.

Test system: PPARa:RXRa (NR concentration 270 nM, RXRa partner concentration 90 nM)
assayOverview: PBM binding z-score (relative to random genomic background probes); higher = stronger binding; sequences stand for … in GC…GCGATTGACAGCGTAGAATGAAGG
Hi there, I'd appreciate the recorded PBM binding z-score for every entry that follows.
Numbers only.

Reference set, count: 2
>>> assayvalue("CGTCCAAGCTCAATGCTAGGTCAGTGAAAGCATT")
0.167
>>> assayvalue("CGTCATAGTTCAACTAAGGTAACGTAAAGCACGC")
3.13

Quick batch: PBM binding z-score for everything below.
1. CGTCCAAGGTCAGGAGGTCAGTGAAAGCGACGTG
2. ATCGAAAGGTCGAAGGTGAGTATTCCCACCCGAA
3. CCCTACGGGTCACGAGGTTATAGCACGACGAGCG
4. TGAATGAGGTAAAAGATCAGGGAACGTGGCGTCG

[5.43, 4.58, 5.71, 2.5]

For each listed entry, give its PBM binding z-score.
1. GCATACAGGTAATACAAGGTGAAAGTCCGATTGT
2. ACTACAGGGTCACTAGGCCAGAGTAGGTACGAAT
3. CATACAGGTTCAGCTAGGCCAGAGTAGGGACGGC

[1.3, 5.65, 1.21]

Batch request: PBM binding z-score per item, same order as input.
1. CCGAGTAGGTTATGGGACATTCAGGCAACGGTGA
2. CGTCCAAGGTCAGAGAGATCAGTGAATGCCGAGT
3. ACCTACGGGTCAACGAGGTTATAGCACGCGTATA

[0.923, 3.73, 5.36]

---

Test system: RARb:RXRa (NR concentration 270 nM, RXRa partner concentration 90 nM)
assayOverview: PBM binding z-score (relative to random genomic background probes); higher = stronger binding; sequences stand for … in GC…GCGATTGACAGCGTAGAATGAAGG
Class boundaries, taken from values of PBM binding z-score, are as follows: A (below 1), B (1 to below 3), C (3 or more)

>>> answerlabel("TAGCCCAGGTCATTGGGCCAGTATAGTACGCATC")
"C"
>>> answerlabel("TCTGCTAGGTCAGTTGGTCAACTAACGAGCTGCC")
"C"
>>> answerlabel("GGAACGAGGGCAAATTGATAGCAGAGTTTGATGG")
"B"
>>> answerlabel("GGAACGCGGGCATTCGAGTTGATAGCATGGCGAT")
"A"
>>> answerlabel("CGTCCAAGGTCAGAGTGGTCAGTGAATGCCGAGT")
"C"
>>> answerlabel("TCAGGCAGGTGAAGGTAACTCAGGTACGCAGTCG")
"A"

Moving on to another sequence below.
Into which bin does this sequence go? ATCTCTAGGTAAACGTTCAGTGAATCCCGAGGAT
A

---

System: RARa:RXR (NR concentration 270 nM, RXRa partner concentration 90 nM)
assayOverview: PBM binding z-score (relative to random genomic background probes); higher = stronger binding; sequences stand for … in GC…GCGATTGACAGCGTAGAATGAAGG
Label Satisfied when PBM binding z-score is at or above 2; anything below gets Not satisfied.

Some solved cases for reference:
>>> answerlabel("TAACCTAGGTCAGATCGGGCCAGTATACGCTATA")
"Not satisfied"
>>> answerlabel("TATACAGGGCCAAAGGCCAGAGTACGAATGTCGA")
"Not satisfied"
>>> answerlabel("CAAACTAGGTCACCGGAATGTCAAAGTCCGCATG")
"Satisfied"

Please check the record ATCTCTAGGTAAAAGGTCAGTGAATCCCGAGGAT and state if its PBM binding z-score is at or above 2.
Satisfied

PBM binding z-score >= 2 for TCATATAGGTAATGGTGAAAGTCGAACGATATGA ?
Not satisfied

Determine whether this sequence has PBM binding z-score no lower than 2: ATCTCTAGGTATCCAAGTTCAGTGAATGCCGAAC
Not satisfied

Hi, just wondering whether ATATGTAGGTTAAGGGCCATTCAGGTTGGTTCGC shows PBM binding z-score of 2 or higher.
Not satisfied

---

Provide the reported PBM binding z-score of each item.
Tested on: PPARa:RXRa (NR concentration 270 nM, RXRa partner concentration 90 nM)
assayOverview: PBM binding z-score (relative to random genomic background probes); higher = stronger binding; sequences stand for … in GC…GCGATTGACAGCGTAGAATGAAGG
One number for each entry.

Take a look at these entries with their results.
>>> assayvalue("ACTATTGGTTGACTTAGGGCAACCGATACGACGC")
0.0767
>>> assayvalue("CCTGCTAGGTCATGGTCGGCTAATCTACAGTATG")
3.56

Dear colleague, could you please provide PBM binding z-score for the sequences listed below?
1. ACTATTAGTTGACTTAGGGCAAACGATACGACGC
2. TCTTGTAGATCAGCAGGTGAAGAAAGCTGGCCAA
3. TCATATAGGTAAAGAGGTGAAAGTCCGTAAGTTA
4. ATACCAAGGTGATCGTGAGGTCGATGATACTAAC
5. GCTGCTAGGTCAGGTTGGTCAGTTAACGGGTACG
6. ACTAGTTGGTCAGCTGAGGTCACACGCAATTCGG
7. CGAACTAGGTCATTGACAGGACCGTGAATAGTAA

[0.325, 0.51, 3.46, 1.34, 1.6, 3.71, 4.62]

---

Please respond with reported PBM binding z-score for every item in the list.
System: PPARg DBDmut IVT, anti-PPARg (DBD mutation: PPARg1 K132A/R137A, NR concentration 270 nM)
assayOverview: PBM binding z-score (relative to random genomic background probes); higher = stronger binding; sequences stand for … in GC…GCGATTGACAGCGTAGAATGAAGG

The examples below pair each entry with its known result.
>>> assayvalue("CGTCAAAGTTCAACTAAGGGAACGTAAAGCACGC")
0.162
>>> assayvalue("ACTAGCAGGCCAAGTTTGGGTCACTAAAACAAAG")
-0.616
>>> assayvalue("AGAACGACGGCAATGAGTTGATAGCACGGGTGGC")
-0.862
>>> assayvalue("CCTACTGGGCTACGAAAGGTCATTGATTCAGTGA")
0.321
>>> assayvalue("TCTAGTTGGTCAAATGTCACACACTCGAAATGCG")
2.34

Record PBM binding z-score for all entries; do not skip any.
1. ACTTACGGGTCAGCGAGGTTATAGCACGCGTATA
2. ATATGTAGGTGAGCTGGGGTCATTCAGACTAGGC
3. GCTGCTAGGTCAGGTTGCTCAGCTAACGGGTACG
4. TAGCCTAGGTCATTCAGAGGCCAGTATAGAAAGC
5. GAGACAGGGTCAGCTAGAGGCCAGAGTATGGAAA

[0.254, 2.99, -0.836, 0.364, -0.747]

---

Test system: LXRb:RXRa (NR concentration 270 nM, RXRa partner concentration 90 nM)
assayOverview: PBM binding z-score (relative to random genomic background probes); higher = stronger binding; sequences stand for … in GC…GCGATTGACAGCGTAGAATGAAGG
We use 0.7 as the dividing line for PBM binding z-score: on or above the line is 1, below is -1.

Worked cases, answers included:
>>> answerlabel("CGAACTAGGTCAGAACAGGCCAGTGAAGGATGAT")
-1
>>> answerlabel("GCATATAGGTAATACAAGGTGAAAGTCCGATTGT")
-1
>>> answerlabel("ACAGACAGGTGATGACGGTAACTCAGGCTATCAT")
-1
>>> answerlabel("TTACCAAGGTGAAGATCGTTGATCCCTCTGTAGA")
-1
>>> answerlabel("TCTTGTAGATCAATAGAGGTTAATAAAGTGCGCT")
1

Is PBM binding z-score at least 0.7? Consider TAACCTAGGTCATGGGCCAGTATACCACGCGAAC
1

Is reported PBM binding z-score greater than or equal to 0.7 here: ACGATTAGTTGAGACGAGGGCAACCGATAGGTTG
-1

Could you tell me if the measured PBM binding z-score of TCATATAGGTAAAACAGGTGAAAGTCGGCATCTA reaches 0.7 or more?
1

---

Test system: PPARa:RXRa (NR concentration 270 nM, RXRa partner concentration 90 nM)
assayOverview: PBM binding z-score (relative to random genomic background probes); higher = stronger binding; sequences stand for … in GC…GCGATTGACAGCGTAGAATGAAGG
quantityKind: PBM binding z-score

Solved cases below.
>>> assayvalue("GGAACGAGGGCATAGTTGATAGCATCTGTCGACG")
2.33
>>> assayvalue("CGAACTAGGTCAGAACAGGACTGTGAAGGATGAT")
2.98
>>> assayvalue("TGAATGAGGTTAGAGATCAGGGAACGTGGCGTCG")
2.47
>>> assayvalue("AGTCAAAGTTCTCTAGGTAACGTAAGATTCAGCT")
0.668
>>> assayvalue("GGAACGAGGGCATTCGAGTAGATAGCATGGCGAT")
1.33
>>> assayvalue("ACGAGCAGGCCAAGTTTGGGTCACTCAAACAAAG")
1.33
>>> assayvalue("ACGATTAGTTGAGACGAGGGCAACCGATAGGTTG")
0.252
>>> assayvalue("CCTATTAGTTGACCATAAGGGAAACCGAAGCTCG")
0.126

Batch lookup, PBM binding z-score per entry.
1. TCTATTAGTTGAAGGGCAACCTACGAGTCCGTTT
2. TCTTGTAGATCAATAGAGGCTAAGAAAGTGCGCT
3. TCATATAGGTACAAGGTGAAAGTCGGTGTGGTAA

1. 0.702
2. 0.411
3. 3.3

State, in one line, measured PBM binding z-score of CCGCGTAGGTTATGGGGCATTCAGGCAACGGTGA
1.43
